test system: Vaccinia virus DNA polymerase (E9) processive complex; assay: vaccinia E9 polymerase processive synthesis inhibitors, primary screen, biochemical, absorbance (AID 493162); conditions: in vitro processive DNA synthesis, absorbance read-out; concentration not given here
In all, about 46,000 compounds went through this assay and about 430 (0.93%) were called active. No stated cut-off is given here; in the data, active means normalized absorbance mostly below about 85% (no sharp cut-off); inactive means mostly above about 86%. The entries come from a sample that favours actives as a whole.
Classes used: active, inactive

>>> class_label("CN1CCc2ccccc2C1Cc1ccccc1NS(=O)(=O)c1cccc(C(F)(F)F)c1 (stereo not given)")
"inactive"
>>> class_label("Cc1nc2ccccc2nc1SCC(=O)O")
"inactive"
>>> class_label("O=C(CSc1nc2ccc(N=Cc3cc(Br)ccc3O)cc2s1)Nc1ccccc1")
"inactive"
>>> class_label("Cc1cc(C)n(-c2nc(-c3cccnc3)nc3ccccc23)n1")
"inactive"
>>> class_label("O=C(NCCN1CCCc2ccccc21)c1cc(-c2cccs2)nc2ccccc12")
"inactive"
>>> class_label("C[N+](C)(C)CCOC(=O)c1ccccc1")
"inactive"
>>> class_label("CC(O)CNC(=O)c1sc2ccccc2c1Cl (stereo not given)")
"inactive"
>>> class_label("COc1ccc2nc(C(=O)N3CCN(C)CC3)sc2c1")
"inactive"
>>> class_label("CCc1ccccc1N1CC(c2nc3ccccc3[nH]2)CC1=O (stereo not given)")
"inactive"
>>> class_label("CCCNS(=O)(=O)c1ccc2c(c1)oc(=O)n2CC(=O)OCC")
"inactive"
>>> class_label("Cc1nc2ccc(S(=O)(=O)NC(CC(C)C)C(=O)NC3CCCCCC3)cc2s1 (stereo not given)")
"inactive"
>>> class_label("O=C1c2ccccc2-c2nn(CC(=O)N3CCOCC3)c3cccc1c23")
"inactive"
>>> class_label("O=c1c2cccc3c2c(nn1CN1CCCCC1)-c1ccccc1-3")
"active"
>>> class_label("O=C(CCNS(=O)(=O)c1ccc2[nH]c(=O)ccc2c1)NC1CCCC1")
"inactive"
>>> class_label("O=C(O)CSc1ccc(Br)c2cccc(Cl)c12")
"inactive"
>>> class_label("COc1ccc(NS(=O)(=O)c2ccc(Oc3c(C#N)cccc3C#N)cc2)cc1")
"inactive"
>>> class_label("O=C(O)CC(c1ccccc1)n1cnnn1 (stereo not given)")
"inactive"
>>> class_label("Cc1ccc(S(=O)(=O)N2CCCC(n3cccc3)C2)cc1 (stereo not given)")
"inactive"
>>> class_label("COc1ccc(Cl)cc1-n1c(SCc2cccc(Cl)c2)nnc1-c1cc2occc2n1C")
"inactive"
>>> class_label("C=CCN(C(=O)c1cccc2c1SCCC2=O)c1ccccc1")
"inactive"
>>> class_label("Fc1ccccc1Cn1cnc2ccccc21")
"inactive"
>>> class_label("COC(=O)c1coc(-c2ccccc2)n1")
"inactive"
>>> class_label("O=C1Cc2cc(S(=O)(=O)NCc3cccs3)ccc2N1")
"inactive"
>>> class_label("CC(C)CNS(=O)(=O)C1CCS(=O)(=O)C1 (stereo not given)")
"inactive"
>>> class_label("O=C(OCC(=O)N1CCCC1)c1ccc(Oc2ccccc2)cc1")
"inactive"

###

Recorded normalized absorbance values for a group of compounds are listed next.
test system: Vaccinia virus DNA polymerase (E9) processive complex; experiment: vaccinia E9 polymerase processive synthesis inhibitors, primary screen, biochemical, absorbance (AID 493162); details: in vitro processive DNA synthesis, absorbance read-out; active compounds read low; concentration not given here
Among all 46,000 compounds or so, about 430 (0.93%) were called active. Many of the other results were omitted from the sample, so actives are more common in it than they were.
measured-attribute: normalized absorbance (%)

>>> quantitative_readout("O=C(NCCc1ccccc1)C(C(=O)c1ccccc1)n1ccccc1=O (centres undefined)")
104
>>> quantitative_readout("Clc1ccc(-c2ncc3ccccn23)c(Cl)c1")
101
>>> quantitative_readout("Cc1ccc2c(Cl)c(C(=O)N(Cc3cccs3)C3CCS(=O)(=O)C3)sc2c1 (centres undefined)")
100
>>> quantitative_readout("Nc1ncnc2c1ncn2CCNCc1ccccc1")
103
>>> quantitative_readout("CC(C)Nc1nc(-c2ccccc2O)nc2ccccc12")
102
>>> quantitative_readout("COc1ccc(C(=O)CSC2=C(C#N)C(c3cccs3)CC(=O)N2)cc1 (centres undefined)")
101
>>> quantitative_readout("CC[n+]1c(C)n(-c2ccccc2)c2ccc(N)cc21")
99.4
>>> quantitative_readout("CC(=O)n1c(C=Nc2ccccc2)c(O)c2ccccc21")
99.4
>>> quantitative_readout("COc1ccc2c(C)cc(-n3nc(C)cc3C)nc2c1")
99
>>> quantitative_readout("Cc1nc(SCC(=O)c2ccc(Cl)cc2)c(C#N)c(C)c1C")
99.7
>>> quantitative_readout("CCS(=O)c1nc2c(Br)cccc2[nH]1 (centres undefined)")
94.1
>>> quantitative_readout("CCN1C(=O)/C(=C/C=C/c2ccco2)C(=O)NC1=S")
64.7
>>> quantitative_readout("O=C1CC(c2ccc(Cl)cc2)Sc2nc3ccccc3n21 (centres undefined)")
100
>>> quantitative_readout("CC[N+](C)(CC)CCC[n+]1c(-c2ccccc2)c2cc(N)ccc2c2ccc(N)cc21")
8.9
>>> quantitative_readout("Cc1nc(C)nc(N(Cc2ccccc2)Cc2ccccc2)n1")
94.7
>>> quantitative_readout("O=C(OCC(=O)N1CCCCCC1)c1ccc(Cl)nc1")
106
>>> quantitative_readout("CCNCC1Cc2ccccc2O1 (centres undefined)")
110
>>> quantitative_readout("O=C(N/C(=C/c1ccccc1)P(=O)(O)c1ccccc1)c1ccccc1")
98.3
>>> quantitative_readout("CN(C)CCN=c1cc(-c2ccccc2)oc2ccc(Cl)cc12")
25.3
>>> quantitative_readout("O=C1NC(=Nc2ccc(O)cc2)S/C1=C\\c1ccc(Cl)cc1Cl")
100
>>> quantitative_readout("CC(C)=CCC(O)C1=CC(=O)c2c(O)ccc(O)c2C1=O (centres undefined)")
81.9
>>> quantitative_readout("CN1CCN(c2nc(NCC3CCCO3)c3ccccc3n2)CC1 (centres undefined)")
98.7
>>> quantitative_readout("CN(C(=O)COC(=O)c1cnc(Cl)c(Cl)c1)c1ccccc1")
101
>>> quantitative_readout("Cc1cc(Nc2ccc(Cl)cc2)n2c(nc3ccccc32)c1C#N")
100
>>> quantitative_readout("CCOc1ccc(S(=O)(=O)N2CCC(C)CC2)cc1")
99
>>> quantitative_readout("CC(=O)Nc1sc(C)nc1-c1ccccc1")
99.1
>>> quantitative_readout("CC12CCC3C(CC=C4CC(OC5CCCCO5)CCC43C)C1CCC2=O (centres undefined)")
100
>>> quantitative_readout("CCc1ccccc1Nc1cc(C(=O)NCC2COc3ccccc3O2)c2ccccc2n1 (centres undefined)")
99.1
>>> quantitative_readout("COc1cc2c3c(c1OC)C1(C=CC(=O)C=C1)CC3[N+](C)(C)CC2 (centres undefined)")
75.6
>>> quantitative_readout("N#Cc1ccccc1NC(=O)CSc1ccccc1")
105
>>> quantitative_readout("COC(=O)CN1C(=O)c2cccnc2Oc2ccc(C)cc21")
92
>>> quantitative_readout("CCN(CC)c1ccc(N=Cc2cccs2)cc1")
99.2
>>> quantitative_readout("C=CCn1c(-c2ccccc2)csc1=Nc1ccc(O)cc1")
100
>>> quantitative_readout("Cc1c(CNCCC2=CCCCC2)c(C(=O)O)c(C)n1Cc1cccc(Cl)c1")
92
>>> quantitative_readout("Fc1ccc(CNCc2ccccn2)cc1")
105
>>> quantitative_readout("C=CCN1C(=O)/C(=C/c2ccc3c(c2)n(C)c(=O)n3C)C(=O)NC1=S")
100
>>> quantitative_readout("O=C(O)CCCC(=O)Nc1ccccn1")
98.3
>>> quantitative_readout("CCCn1c[n+](CC(=O)C(C)(C)C)c2ccccc21")
101
>>> quantitative_readout("c1ccc(-c2cc(NCC3CC3)n3cnnc3n2)cc1")
98.2
>>> quantitative_readout("CCc1ccc(/C=C2\\SC(=S)N(CCCC(=O)Nc3cccnc3)C2=O)cc1")
99.7
>>> quantitative_readout("COc1ccc(-c2cc(-c3ccccc3)nc(SCC(N)=NC#N)c2C#N)cc1")
100
>>> quantitative_readout("Clc1ccc2oc(-c3ccccc3)c/c(=N\\c3nccs3)c2c1")
99.8
>>> quantitative_readout("ClCc1csc(-c2ccccc2)n1")
96.4
>>> quantitative_readout("CCN(CC)c1ccc(N=C2C(=C(C#N)C#N)c3ccccc3C2=C(C#N)C#N)cc1")
99.9
>>> quantitative_readout("CC(=O)n1c2ccccc2c2nc(C)sc21")
45.9
>>> quantitative_readout("O=C(CCc1nc(-c2ccccc2)no1)N1CCCCC1")
94.1
>>> quantitative_readout("Cc1ccccc1Nc1nn2c(=O)c3ccc(C(=O)NCc4ccccc4Cl)cc3nc2s1")
96.3
>>> quantitative_readout("O=c1c(/C=N\\O)coc2ccc(F)cc12")
79.3
>>> quantitative_readout("Cc1ccc(S(=O)(=O)N2CCCC(C(=O)N(C)c3ccccc3)C2)cc1 (centres undefined)")
101
